Biological target: Amine oxidase [flavin-containing] A (Homo sapiens, UniProt P21397)
Sequence (P21397 whole entry): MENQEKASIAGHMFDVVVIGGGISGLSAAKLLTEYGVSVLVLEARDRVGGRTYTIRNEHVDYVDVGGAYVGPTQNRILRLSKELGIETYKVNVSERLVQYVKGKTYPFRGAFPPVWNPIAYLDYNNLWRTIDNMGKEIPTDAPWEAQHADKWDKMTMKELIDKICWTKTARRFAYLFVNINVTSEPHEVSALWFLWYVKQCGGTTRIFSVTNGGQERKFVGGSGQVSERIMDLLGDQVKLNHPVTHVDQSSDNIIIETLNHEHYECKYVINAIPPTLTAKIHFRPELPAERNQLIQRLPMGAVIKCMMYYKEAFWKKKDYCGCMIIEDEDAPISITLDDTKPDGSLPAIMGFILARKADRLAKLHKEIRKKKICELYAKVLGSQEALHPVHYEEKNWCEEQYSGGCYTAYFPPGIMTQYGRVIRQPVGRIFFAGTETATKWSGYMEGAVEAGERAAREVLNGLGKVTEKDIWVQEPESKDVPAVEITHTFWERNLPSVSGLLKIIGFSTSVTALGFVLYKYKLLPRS
Assay: DRUGMATRIX: Monoamine Oxidase MAO-A enzyme inhibition (substrate: Kynuramine)
Parameters: species or system BTI-TN-5B1-4
Details: bti-tn-5b1-4; Not Active = under 50% inhibition at 10 µM

compound	tested_system	IC50
CCCCOc1ccc(OCCCN2CCOCC2)cc1 [PRAMOXINE]	Amine oxidase [flavin-containing] A (Homo sapiens, UniProt P21397)	Not Active
Nc1ccn([C@@H]2CS[C@H](CO)O2)c(=O)n1 [LAMIVUDINE]	Amine oxidase [flavin-containing] A (Homo sapiens, UniProt P21397)	Not Active
COP(=O)(OC)OC=C(Cl)Cl [DICHLORVOS]	Amine oxidase [flavin-containing] A (Homo sapiens, UniProt P21397)	Not Active
Cc1cccc(Nc2ccncc2S(=O)(=O)NC(=O)NC(C)C)c1 [TORSEMIDE]	Amine oxidase [flavin-containing] A (Homo sapiens, UniProt P21397)	Not Active
CCn1cc(C(=O)O)c(=O)c2cc(F)c(N3CCN(C)CC3)cc21 [PEFLOXACIN]	Amine oxidase [flavin-containing] A (Homo sapiens, UniProt P21397)	Not Active
Cn1c(=O)c2c(ncn2CC2OCCO2)n(C)c1=O [DOXOFYLLINE]	Amine oxidase [flavin-containing] A (Homo sapiens, UniProt P21397)	Not Active
O=c1ccc2ccccc2o1 [COUMARIN]	Amine oxidase [flavin-containing] A (Homo sapiens, UniProt P21397)	Not Active
C[C@H]1C[C@H]2[C@@H]3CCC4=CC(=O)C=C[C@]4(C)[C@@]3(Cl)[C@@H](O)C[C@]2(C)[C@@]1(O)C(=O)CO [BECLOMETHASONE]	Amine oxidase [flavin-containing] A (Homo sapiens, UniProt P21397)	Not Active
CC(C(=O)O)c1cccc(C(=O)c2ccccc2)c1 (stereo unspecified) [KETOPROFEN]	Amine oxidase [flavin-containing] A (Homo sapiens, UniProt P21397)	Not Active
COc1ccc2[nH]c([S+]([O-])Cc3ncc(C)c(OC)c3C)nc2c1 (stereo unspecified) [OMEPRAZOLE]	Amine oxidase [flavin-containing] A (Homo sapiens, UniProt P21397)	Not Active
CCCN(CCC)C(=O)C(CCC(=O)O)NC(=O)c1ccccc1 (stereo unspecified) [PROGLUMIDE]	Amine oxidase [flavin-containing] A (Homo sapiens, UniProt P21397)	Not Active
C[C@@]12C(=O)OC(=O)[C@]1(C)[C@H]1CC[C@@H]2O1 [CANTHARIDIN]	Amine oxidase [flavin-containing] A (Homo sapiens, UniProt P21397)	Not Active
C/C=C/C[C@@H](C)[C@@H](O)[C@H]1C(=O)N[C@@H](CC)C(=O)N(C)CC(=O)N(C)[C@@H](CC(C)C)C(=O)N[C@@H](C(C)C)C(=O)N(C)[C@@H](CC(C)C)C(=O)N[C@@H](C)C(=O)N[C@H](C)C(=O)N(C)[C@@H](CC(C)C)C(=O)N(C)[C@@H](CC(C)C)C(=O)N(C)[C@@H](C(C)C)C(=O)N1C [CYCLOSPORINE]	Amine oxidase [flavin-containing] A (Homo sapiens, UniProt P21397)	Not Active
CC(C)c1nc(CN(C)C(=O)N[C@H](C(=O)N[C@@H](Cc2ccccc2)C[C@H](O)[C@H](Cc2ccccc2)NC(=O)OCc2cncs2)C(C)C)cs1 [RITONAVIR]	Amine oxidase [flavin-containing] A (Homo sapiens, UniProt P21397)	Not Active
C=C1CC[C@H](O)C/C1=C/C=C1\CCC[C@]2(C)[C@@H]([C@H](C)CCCC(C)C)CC[C@@H]12 [CHOLECALCIFEROL]	Amine oxidase [flavin-containing] A (Homo sapiens, UniProt P21397)	Not Active
COC(=O)C1=C(C)NC(C)=C(C(=O)OCC(C)C)C1c1ccccc1[N+](=O)[O-] (stereo unspecified) [NISOLDIPINE]	Amine oxidase [flavin-containing] A (Homo sapiens, UniProt P21397)	Not Active
